Data provenance: the Biogen ADME set (Fang et al. 2023)

# binarize intrinsic clearance, rat liver microsomes: threshold 60 mL/min/kg inclusive, high side criterion met, low side criterion not met

**Q:** // inclusive: intrinsic clearance, rat liver microsomes at least 60 mL/min/kg? input: "CCCc1nnc(NCc2cn3ccc(C)cc3n2)o1"
**A:** criterion not met

**Q:** Entry "Cc1nc(C2CCN(c3ccc(F)cc3C#N)CC2)no1" : is its intrinsic clearance, rat liver microsomes no less than 60 mL/min/kg?
**A:** criterion met

**Q:** Textbook exercise: given the entry "CC(C)(O)C(=O)N1CCC(c2ccc3c(NCc4ccccc4F)n[nH]c3n2)CC1" , state whether its intrinsic clearance, rat liver microsomes is greater than or equal to 60 mL/min/kg.
**A:** criterion met

Continuing:
**Q:** Item "Nc1cnn(CC(=O)Nc2ccc(F)cc2)c1" with intrinsic clearance, rat liver microsomes of 60 mL/min/kg or above?
**A:** criterion met

**Q:** State whether the measured intrinsic clearance, rat liver microsomes reaches 60 mL/min/kg, counting equality as reaching it, for "CCN1CCN(c2ccc(Nc3ncnc4sccc34)cc2)CC1"
**A:** criterion met

**Q:** Has CNC(=O)C1(Cc2ccc(-c3ccncc3)cc2)CCN(Cc2cccc(F)c2)C1 (stereo unspecified) a recorded intrinsic clearance, rat liver microsomes greater than or equal to 60 mL/min/kg?
**A:** criterion met
